I'd appreciate it if you could supply % Inhibition at 1 µM values for the items below.
target_system: T1, melanocortin-1 receptor (MC1-R) of B-16 mouse melanoma cells (mouse, UniProt Q01727 1-315)
T1 construct: whole, on cells; membranes prepared from the cells were used; also called Melanocortin Receptor 1
T1 sequence (Q01727 whole entry): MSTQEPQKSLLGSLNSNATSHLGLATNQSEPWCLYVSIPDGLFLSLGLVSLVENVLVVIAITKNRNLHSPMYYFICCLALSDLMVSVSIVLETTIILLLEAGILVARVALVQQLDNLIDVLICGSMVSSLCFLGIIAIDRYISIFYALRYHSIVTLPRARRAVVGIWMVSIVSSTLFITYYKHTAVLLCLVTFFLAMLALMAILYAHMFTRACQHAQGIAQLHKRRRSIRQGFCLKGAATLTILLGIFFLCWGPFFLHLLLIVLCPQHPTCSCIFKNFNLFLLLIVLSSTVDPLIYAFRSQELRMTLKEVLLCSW
assay_name: 125I-NDP-α-MSH competition, B-16 membranes
Square brackets hold non-standard residues; d marks the D form. Ends that are not written are not given here. Nle = CCCC[C@H](N)C(=O)O
Give bare numbers, in %.

Worked cases, % Inhibition at 1 µM given:
# binder, % Inhibition at 1 µM / %
records = [
    ("YVC[Nle]GHFRWDRF-NH2 (bridge (positions not given here); not fully specified (bridges); printed as Tyr-Val-Cys-Nle-Gly-His-Phe-Arg-Trp-Asp-Arg-Phe-NH2.; also: oxorhenium(V) N3S1 complex) [metallopeptide 4-10]", 28),
    ("Ac-SY[dC]S[Nle]EHFRWGKPV-NH2 (also: oxorhenium(V) N3S1 chelate at D-Cys3) [metallopeptide 2-12]", 97),
    ("SYSXEHFRWGKGVC (N-terminal acetyl; Nle 4 (X in letters); D-Cys 14; C-terminal amide; Re complexed at D-Cys 14) [metallopeptide 2-1]", 97),
]

Please examine the following record next.
Look up % Inhibition at 1 µM for this binder: YV[Nle]GHFRWCDRF-NH2 (also: oxorhenium(V) N3S1 chelate: C9 SG + backbone N of R7, W8, C9, bridge at 9 via Re(V)=O, other end not in the chain) [metallopeptide 4-4] 52
